# target entity: UniProtKB Q8N884
# assay protocol: Cellular assay to measure cGAS activity (IFNb AlphaLISA in THP1 cells stimulated by RDG-Adenovirus-GFP)
# Assay type: cell-based
# Design: host or cells: THP1 cells differentiated with PMA and stimulated with RDG-Adenovirus-GFP
# condition details: PMA-differentiated THP1 cells, RDG-Adenovirus-GFP at 1000 MOI; inhibition of IFNb production as marker for cGAS activity
# Procedure: Cellular assay to measure cGAS activity: Use THP1 cell line from ATCC to determine inhibition of cGAS activity by test compounds in human cells. Plate cells on 96-well plates at 0.2×10^6/well and differentiate with phorbol myristate acetate (PMA) at 37° C./5% CO2. […] Measure quantification of IFNb with an IFNb AlphaLISA Detection kit (Perkin Elmer AL3133F) by mixing the acceptor beads with the cell supernatant followed by the addition of the biotinylated antibody and donor beads. […]
pIC50: −log10 of the molar value.
endpoint label: pIC50

molecule | limit sign | value
COCC[C@H]1CNC(=O)[C@H](C)c2c1[nH]c1c(Cl)c(Cl)cc(NCCO)c21 (single isomer, unassigned) [Example 172] | < | 5.00
C[C@@H]1C(=O)NCCc2[nH]c3c(Cl)c(Cl)cc(OCCCO)c3c21 (single isomer, unassigned) [Example 14A] | = | 6.46
COCC[C@@H]1CNC(=O)[C@H](C)c2c1[nH]c1c(Cl)c(Cl)cc(NCCO)c21 (racemic) | = | 6.33
COCCOc1cc(Cl)c(Cl)c2[nH]c3c(c12)[C@H](C)C(=O)NCC3(C)C (single isomer, unassigned) [Example 185] | < | 5.00
Cn1ncc(-c2cc(Cl)c(Cl)c3c2c2c4n3CCC4CNC(=O)C2)n1 (centres unmarked) | = | 6.19
COCCOc1cc(Cl)c(Cl)c2[nH]c3c(c12)[C@H](C)C(=O)NCC3 (single isomer, unassigned) [Example 80] | = | 6.55
C[C@@H](O)CNc1cc(Cl)c(Cl)c2[nH]c3c(c12)[C@@H](C)C(=O)NCC3 (single isomer, unassigned) [Example 55] | = | 5.72
CC(O)CC1CNC(=O)Cc2c1[nH]c1c(Cl)c(Cl)cc(-c3cnn(C)n3)c21 (centres unmarked) | = | 6.31
C[C@H](O)C(=O)Nc1cc(Cl)c(Cl)c2c1c1c(n2C)CCNC(=O)[C@H]1C (single isomer, unassigned) [Example 95] | ≤ | 5.00
C[C@H]1C(=O)NCC(C)(C)c2[nH]c3c(Cl)c(Cl)cc(NC(=O)CO)c3c21 (single isomer, unassigned) [Example 132] | < | 5.00
CC1C(=O)NCCc2c1c1c(NCCO)cc(Cl)c(Cl)c1n2C (single isomer, unassigned) | = | 5.87
Cn1ncc(-c2cc(Cl)c(Cl)c3[nH]c4c(c23)CC(=O)NC[C@H]4CCN2CCOCC2)n1 (single isomer, unassigned) | = | 5.84
C[C@H](O)C(=O)Nc1cc(Cl)c(Cl)c2c1c1c(n2C(F)F)CCNC(=O)[C@H]1C (single isomer, unassigned) [Example 142] | = | 6.53
CCC1C(=O)NCCc2[nH]c3c(Cl)c(Cl)cc(NC(=O)CO)c3c21 (centres unmarked) | = | 5.75

###

Entries annotated with measured IC50
# target entity: cGAS (Homo sapiens)
# assay protocol: Cellular assay to measure cGAS activity (IFNb AlphaLISA in THP1 cells stimulated by RDG-Adenovirus-GFP)
# Format: cell-based
# Design: host or cells: THP1 cells differentiated with PMA and stimulated with RDG-Adenovirus-GFP
# condition details: PMA-differentiated THP1 cells, RDG-Adenovirus-GFP at 1000 MOI; inhibition of IFNb production as marker for cGAS activity

compound | unit | limit sign | IC50
Cn1c2c(c3c(CC#N)cc(Cl)c(Cl)c31)CC(=O)NC[C@H]2CC(C)(C)O (single isomer, unassigned) [Example 129] | nM | = | 1320
C[C@@H]1C(=O)NCCc2[nH]c3c(Cl)c(Cl)cc(NC(=O)CO)c3c21 (single isomer, unassigned) [Example 12A] | nM | = | 356
C[C@H](O)C(=O)Nc1cc(Cl)c(Cl)c2[nH]c3c(c12)[C@@H](C)C(=O)NCC3(C)C (single isomer, unassigned) [Example 181] | nM | > | 10000
N#CCc1cc(Cl)c(Cl)c2[nH]c3c(c12)CC(=O)NCC3 | nM | = | 914
CC(O)COc1cc(Cl)c(Cl)c2[nH]c3c(c12)CC(=O)NCC3 (stereo not drawn) | nM | = | 5970
Cn1ncc(-c2cc(Cl)c(Cl)c3[nH]c4c(c23)CC(=O)NCC4CCO)n1 (racemic) | nM | = | 420
CC(=O)OCCCOc1cc(Cl)c(Cl)c2[nH]c3c(c12)C(C)C(=O)NCC3 (racemic) | nM | = | 582
Nc1cncc(-c2cc(Cl)c(Cl)c3[nH]c4c(c23)CC(=O)NCC4)n1 | nM | = | 1730
C[C@H]1C(=O)NCC(C)(C)c2c1c1c(NC(=O)CO)cc(Cl)c(Cl)c1n2C (single isomer, unassigned) [Example 135] | nM | ≥ | 10000
C[C@H](O)C(=O)Nc1cc(Cl)c(Cl)c2c1c1c(n2C(F)F)CCNC(=O)[C@H]1C (single isomer, unassigned) [Example 143] | nM | > | 10000
CCNc1cc(Cl)c(Cl)c2[nH]c3c(c12)CC(=O)NCC3 | nM | = | 3730
C[C@H](O)C(=O)Nc1cc(Cl)c(Cl)c2c1c1c(n2C)CCNC(=O)[C@H]1C (single isomer, unassigned) [Example 94] | nM | = | 663
Cn1ncc(-c2cc(Cl)c(Cl)c3[nH]c4c(c23)CC(=O)NC[C@H]4CCO)n1 (single isomer, unassigned) [Example 8A] | nM | = | 168
O=C1Cc2c([nH]c3c(Cl)c(Cl)cc(-c4cnco4)c23)CCN1 | nM | > | 10000
C[C@H]1C(=O)NCCc2[nH]c3c(Cl)c(Cl)cc(-c4cnn(C)n4)c3c21 [Example 38] | nM | = | 9800

###

Entries annotated with measured pIC50
# target entity: cGAS (Homo sapiens, UniProt Q8N884)
# Sequence (Q8N884 whole entry): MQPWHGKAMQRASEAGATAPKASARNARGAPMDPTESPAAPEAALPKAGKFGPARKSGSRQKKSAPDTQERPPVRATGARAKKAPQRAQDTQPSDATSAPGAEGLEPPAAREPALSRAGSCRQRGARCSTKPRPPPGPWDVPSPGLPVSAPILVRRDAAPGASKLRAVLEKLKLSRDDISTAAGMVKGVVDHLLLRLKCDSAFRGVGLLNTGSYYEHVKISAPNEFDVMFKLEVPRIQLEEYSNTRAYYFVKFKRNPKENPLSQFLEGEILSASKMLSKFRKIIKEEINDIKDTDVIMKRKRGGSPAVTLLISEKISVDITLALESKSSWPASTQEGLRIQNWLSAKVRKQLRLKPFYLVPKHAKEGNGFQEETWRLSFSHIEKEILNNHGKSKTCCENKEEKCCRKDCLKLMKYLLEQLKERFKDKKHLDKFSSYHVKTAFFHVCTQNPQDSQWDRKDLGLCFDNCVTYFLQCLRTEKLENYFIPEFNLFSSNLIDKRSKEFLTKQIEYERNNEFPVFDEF
# assay protocol: Cellular assay to measure cGAS activity (IFNb AlphaLISA in THP1 cells stimulated by RDG-Adenovirus-GFP)
# Assay type: cell-based
# Set-up: host or cells: THP1 cells differentiated with PMA and stimulated with RDG-Adenovirus-GFP
# condition details: PMA-differentiated THP1 cells, RDG-Adenovirus-GFP at 1000 MOI; inhibition of IFNb production as marker for cGAS activity
# Description: Cellular assay to measure cGAS activity: Use THP1 cell line from ATCC to determine inhibition of cGAS activity by test compounds in human cells. Plate cells on 96-well plates at 0.2×10^6/well and differentiate with phorbol myristate acetate (PMA) at 37° C./5% CO2. […] Measure quantification of IFNb with an IFNb AlphaLISA Detection kit (Perkin Elmer AL3133F) by mixing the acceptor beads with the cell supernatant followed by the addition of the biotinylated antibody and donor beads. […]
pIC50: −log10 of the molar value.
endpoint label: pIC50

molecule | limit sign | value
COCCOc1cc(Cl)c(Cl)c2c1c1c(n2C)CCNC(=O)C1C (stereo not shown) | = | 5.94
C[C@@H](O)CNc1cc(Cl)c(Cl)c2c1c1c(n2C)CCNC(=O)[C@@H]1C (single isomer, unassigned) [Example 101] | < | 5.00
C[C@H]1C(=O)NCCc2[nH]c3c(Cl)c(Cl)cc(CC#N)c3c21 (single isomer, unassigned) [Example 89] | = | 5.95
Cn1c2c(c3c(CC#N)cc(Cl)c(Cl)c31)CC(=O)NC[C@H]2CCO (single isomer, unassigned) [Example 123] | = | 6.74
N#CCc1cc(Cl)c(Cl)c2[nH]c3c(c12)CC(=O)NCC3CCO (stereo not shown) | = | 5.76
COCCNc1cc(Cl)c(Cl)c2[nH]c3c(c12)C(C)C(=O)NCC3 (racemic) | = | 6.05
C[C@@H]1CNC(=O)[C@@H](C)c2c1[nH]c1c(Cl)c(Cl)cc(CC#N)c21 (single isomer, unassigned) [Example 153] | < | 5.00

###

# target entity: cGAS (Homo sapiens)
# assay protocol: In vitro inhibition assay of cGAS activity (cGAMP production, RapidFire mass spectrometry)
# Format: biochemical
# Parameters: Insert cDNA encoding full-length of human cGAS; His6; made in house; host or cells: E. coli BL21(DE3)
# condition details: 10 nM recombinant human cGAS, 60 nM 75-bp dsDNA, 50 μM ATP, 50 μM GTP, 3 hrs
endpoint label: log10 of IC50 (log10 of the value in µM)

molecule | log10 of IC50
C[C@@H]1C(=O)NCCc2[nH]c3c(Cl)c(Cl)cc(N[C@H]4CCOC4)c3c21 (single isomer, unassigned) [Example 62] | -1.35
C[C@@H]1C(=O)NC[C@H](C)c2[nH]c3c(Cl)c(Cl)cc(CC#N)c3c21 (single isomer, unassigned) [Example 152] | -0.02
C[C@@H]1C(=O)NCCc2[nH]c3c(Cl)c(Cl)cc(OCc4cocn4)c3c21 (single isomer, unassigned) [Example 178] | -1.97
C[C@@H]1C(=O)NCCc2[nH]c3c(Cl)c(Cl)cc(OCCCO)c3c21 (single isomer, unassigned) [Example 14A] | -2.14
Cn1c2c(c3c(CC#N)cc(Cl)c(Cl)c31)CC(=O)NC[C@H]2CC(C)(C)O (single isomer, unassigned) [Example 130] | -1.91
CC(C)(O)C[C@@H]1CNC(=O)Cc2c1[nH]c1c(Cl)c(Cl)cc(CC#N)c21 (single isomer, unassigned) [Example 106] | -0.73

Source listed as patent US20240246979A1.
